Catalogue of compounds with associated IC50
Molecular target: human rhinovirus 16 polymerase (HRV16pol) (Human rhinovirus 16, UniProt Q82122)
Sequence (Q82122 1694-2153 limits assumed): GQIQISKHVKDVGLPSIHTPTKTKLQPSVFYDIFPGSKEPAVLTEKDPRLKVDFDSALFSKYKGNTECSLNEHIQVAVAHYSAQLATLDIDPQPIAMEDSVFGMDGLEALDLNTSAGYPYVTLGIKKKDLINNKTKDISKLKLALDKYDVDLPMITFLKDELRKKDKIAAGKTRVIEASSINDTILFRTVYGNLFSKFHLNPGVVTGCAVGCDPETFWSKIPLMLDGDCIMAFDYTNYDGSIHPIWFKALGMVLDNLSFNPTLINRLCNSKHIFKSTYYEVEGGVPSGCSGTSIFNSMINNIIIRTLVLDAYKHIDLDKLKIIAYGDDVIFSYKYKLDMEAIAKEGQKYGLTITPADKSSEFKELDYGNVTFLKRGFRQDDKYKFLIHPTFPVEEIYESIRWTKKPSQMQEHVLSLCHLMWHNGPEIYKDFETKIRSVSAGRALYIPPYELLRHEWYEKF
Experiment: Picornavirus polymerase inhibition assay: incorporation of tritiated NMP into acid-insoluble RNA products
Format: biochemical
Details: recombinant HRV16pol, 2.5 h at 30° C., mean of several independent experiments; read-out: IC50

As a guide, the following entries are already answered.
Nc1ccn([C@@H]2O[C@](CF)(COP(=O)(O)OP(=O)(O)OP(=O)(O)O)[C@@H](O)[C@@H]2CF)c(=O)n1 [Compound 50] :: 5 to 20 µM
Nc1ccn([C@@H]2O[C@@](COP(=O)(O)OP(=O)(O)OP(=O)(O)O)(C(F)F)[C@@H](O)[C@@H]2O)c(=O)n1 [Compound 52] :: < 5 µM
Nc1ccn([C@H]2C[C@H](O)[C@](COP(=O)(O)OP(=O)(O)OP(=O)(O)O)(C(F)F)O2)c(=O)n1 [Compound 54] :: < 5 µM
C=C[C@]1(COP(=O)(O)OP(=O)(O)OP(=O)(O)O)O[C@@H](n2ccc(N)nc2=O)[C@@H](F)[C@@H]1O [Compound 23] :: < 5 µM

Lab book: IC50 of O=c1ccn([C@@H]2O[C@](CCl)(COP(=O)(O)OP(=O)(O)OP(=O)(O)O)[C@@H](O)[C@@H]2F)c(=O)[nH]1 [Compound 19] noted as < 5 µM

Lab book: IC50 of Nc1ccn([C@@H]2O[C@](CBr)(COP(=O)(O)OP(=O)(O)OP(=O)(O)O)[C@@H](O)[C@@H]2F)c(=O)n1 [Compound 20] noted as 20 to 100 µM
